MIC80 overview
System: Aspergillus terreus ATCC 28301
test_protocol: In vitro antifungal activity (MIC80), Aspergillus terreus ATCC 28301
Assay type: cell-based
conditions: Aspergillus terreus, ATCC28301; Table 3, ATCC 28301; read-out: Minimal inhibitory concentration (MIC80)

As a guide, the following entries are already answered.
Data request: Give MIC80; test system Aspergillus terreus ATCC 28301; compound C[C@@H](N1CCN(c2nc3ccc(NCCN4CCOCC4)cc3s2)CC1)[C@](O)(Cn1cncn1)c1ccc(F)cc1F
Data returned: 4 µg/mL

Data request: Report MIC80 from Aspergillus terreus ATCC 28301 testing of CCC(C)n1ncn(-c2ccc(N3CCN(c4ccc(OCC5COC(Cn6cncn6)(c6ccc(Cl)cc6Cl)O5)cc4)CC3)cc2)c1=O (stereo not drawn) [I, itraconazole, reference compound]
Data returned: 0.25 µg/mL

Data request: // output MIC80; input OC(Cn1cncn1)(Cn1cncn1)c1ccc(F)cc1F [F, fluconazole, reference compound] ; system Aspergillus terreus ATCC 28301
Data returned: > 128 µg/mL

Data request: Give MIC80 for C[C@@H](N1CCCN(c2ccccn2)CC1)[C@](O)(Cn1cncn1)c1ccc(F)cc1F tested on Aspergillus terreus ATCC 28301.
Data returned: 1 µg/mL

Data request: Specify MIC80 for C[C@@H](N1CCN(c2nc3ccc(Cl)cc3s2)CC1)[C@](O)(Cn1cncn1)c1ccc(F)cc1F , system Aspergillus terreus ATCC 28301.
Data returned: 1 µg/mL

New cases:
Data request: Provide MIC80, recorded with Aspergillus terreus ATCC 28301, of C[C@@H](N1CCN(c2nc3ccc(Cl)cc3o2)CC1)[C@](O)(Cn1cncn1)c1ccc(F)cc1F
Data returned: 0.5 µg/mL

* * *

System: Candida albican ATCC MYA-1003
test_protocol: In vitro antifungal activity (MIC80), Candida albican ATCC MYA-1003
Type: cell-based
conditions: Candida; Table 2, MYA 1003; read-out: Minimal inhibitory concentration (MIC80)
Experimental: In vitro antifungal activities of the inventive antifungal compounds were evaluated using test strains including Candida albican (ATCC 90873, 204276, 62342, 64124, 64550, 96901, MYA-573, MYA-574, MYA-575, MYA-576, MYA-1003) and Aspergillus fumigatus (ATCC 16424). […] Minimal inhibitory concentration (MIC80) of each compound was determined as the lowest concentration of the test compounds required to reduce growth by 80% relative to a control strain not treated. […]
Measured MIC80, listed per entry.
Give the value in µg/mL but do not write µg/mL after it.

Past entries and their recorded results:
Data request: Query MIC80 for CC(N1CCN(c2ccc(N(C)CCCN3CCOCC3)nc2)CC1)C(O)(Cn1cncn1)c1ccc(F)cc1F (stereo not shown)
Data returned: 128

Data request: Note down MIC80 recorded for C[C@@H](N1CCN(c2ccccn2)CC1)[C@](O)(Cn1cncn1)c1ccc(F)cc1F
Data returned: 64

Continuing:
Data request: Look up and state reported MIC80 for C[C@@H](N1CCN(c2nc3ccccc3s2)CC1)[C@](O)(Cn1cncn1)c1ccc(F)cc1F
Data returned: 128

* * *

Tested on: Candida albican ATCC MYA-1003
test_protocol: In vitro antifungal activity (MIC80), Candida albican ATCC MYA-1003
Format: cell-based
conditions: Candida; Table 2, MYA 1003; read-out: Minimal inhibitory concentration (MIC80)
List of MIC80 values.

Data request: Assign MIC80 to the following record: Cc1ccc(C(=O)c2cnc3sc(C(=O)N4CCN([C@H](C)[C@](O)(Cn5cncn5)c5ccc(F)cc5F)CC4)cn23)cc1 [Example 56]
Data returned: > 128 µg/mL

Next:
Data request: Return value of MIC80 for input C[C@@H](N1CCCN(c2ccc3ccccc3n2)CC1)[C@](O)(Cn1cncn1)c1ccc(F)cc1F [Example 40] , no commentary.
Data returned: > 128 µg/mL

Data request: Check the records and state MIC80 for C[C@@H](N1CCN(c2nc3ccc(Cl)cc3s2)CC1)[C@](O)(Cn1cncn1)c1ccc(F)cc1F [Example 4]
Data returned: > 128 µg/mL

Data request: Input C[C@@H](N1CCN(C(=O)c2nc(-c3ccc(F)cc3)ns2)CC1)[C@](O)(Cn1cncn1)c1ccc(F)cc1F [Example 52] , output reported MIC80.
Data returned: > 128 µg/mL

Data request: Could you please provide reported MIC80 for C[C@@H](N1CCN(c2ccc(OCc3cccs3)nc2)CC1)[C@](O)(Cn1cncn1)c1ccc(F)cc1F [Example 35] ? Thanks!
Data returned: > 128 µg/mL

Data request: Look up and report measured MIC80 for this entry: CC(N1CCN(c2ccc(N(C)CCc3cccs3)nc2)CC1)C(O)(Cn1cncn1)c1ccc(F)cc1F (stereo not drawn) [Example 37]
Data returned: > 128 µg/mL

Where these numbers come from: patent US20100144712A1
